The reader will find reported MIC90 values listed item by item below.
# Tested on: Streptococcus pneumoniae
# measurement_description: Antibacterial activity against penicillin intermediate Streptococcus pneumoniae clinical isolate by broth microdilution method
# Format: functional
Write down the numeric answer in µg/mL and omit the unit.

// below: answered compounds
CCC[C@@H]1C[C@@H](C(=O)N[C@@H]([C@H]2O[C@H](SC)[C@H](O)[C@@H](O)[C@H]2O)[C@H](C)Cl)N(C)C1 [CLINDAMYCIN]    0.5
CC(=O)NC[C@H]1CN(c2ccc(N3CCOCC3)c(F)c2)C(=O)O1 [LINEZOLID]    1
C[C@H]1COc2c(N3CCN(C)CC3)c(F)cc3c(=O)c(C(=O)O)cn1c23.C[C@H]1COc2c(N3CCN(C)CC3)c(F)cc3c(=O)c(C(=O)O)cn1c23.O [LEVOFLOXACIN]    1
CO/N=C(\C(=O)N[C@@H]1C(=O)N2C(C(=O)O)=C(CSc3nc(=O)c(O)nn3C)CS[C@H]12)c1csc(N)n1 [CEFTRIAXONE]    1
CCCCCCCCCC(=O)N[C@@H](Cc1c[nH]c2ccccc12)C(=O)N[C@H](CC(N)=O)C(=O)N[C@@H](CC(=O)O)C(=O)N[C@@H]1C(=O)NCC(=O)N[C@@H](CCCN)C(=O)N[C@@H](CC(=O)O)C(=O)N[C@H](C)C(=O)N[C@@H](CC(=O)O)C(=O)NCC(=O)N[C@H](CO)C(=O)N[C@@H]([C@H](C)CC(=O)O)C(=O)N[C@@H](CC(=O)c2ccccc2N)C(=O)O[C@@H]1C    0.5

# lookup: CN[C@H](CC(C)C)C(=O)N[C@H]1C(=O)N[C@@H](CC(N)=O)C(=O)N[C@H]2C(=O)N[C@H]3C(=O)N[C@H](C(=O)N[C@H](C(=O)O)c4cc(O)cc(O)c4-c4cc3ccc4O)[C@H](O)c3ccc(c(Cl)c3)Oc3cc2cc(c3O[C@@H]2O[C@H](CO)[C@@H](O)[C@H](O)[C@H]2O[C@H]2C[C@](C)(N)[C@H](O)[C@H](C)O2)Oc2ccc(cc2Cl)[C@H]1O [VANCOMYCIN] on Streptococcus pneumoniae, MIC90 = 0.5

# lookup: CO/N=C(\C(=O)N[C@@H]1C(=O)N2C(C(=O)O)=C(COC(N)=O)CS[C@H]12)c1ccco1 [CEFUROXIME] on Streptococcus pneumoniae, MIC90 = 4

# lookup: CC[C@H]1OC(=O)[C@H](C)C(=O)[C@H](C)[C@@H](O[C@@H]2O[C@H](C)C[C@H](N(C)C)[C@H]2O)[C@](C)(OC)C[C@@H](C)C(=O)[C@H](C)[C@H]2N(CCCCn3cnc(-c4cccnc4)c3)C(=O)O[C@]12C [TELITHROMYCIN] on Streptococcus pneumoniae, MIC90 = 0.12

###

# Tested on: Streptococcus pyogenes
# measurement_description: Antibacterial activity against Streptococcus pyogenes group A clinical isolate assessed as susceptibility level by broth microdilution method
# Assay type: functional
observed_property: Activity (%)
Write down the numeric answer in % and omit the unit.

CCCCCCCCCC(=O)N[C@@H](Cc1c[nH]c2ccccc12)C(=O)N[C@H](CC(N)=O)C(=O)N[C@@H](CC(=O)O)C(=O)N[C@@H]1C(=O)NCC(=O)N[C@@H](CCCN)C(=O)N[C@@H](CC(=O)O)C(=O)N[C@H](C)C(=O)N[C@@H](CC(=O)O)C(=O)NCC(=O)N[C@H](CO)C(=O)N[C@@H]([C@H](C)CC(=O)O)C(=O)N[C@@H](CC(=O)c2ccccc2N)C(=O)O[C@@H]1C    100
CN(C)[C@@H]1C(O)=C(C(N)=O)C(=O)[C@@]2(O)C(O)=C3C(=O)c4c(O)cccc4[C@@](C)(O)[C@H]3C[C@@H]12    89
CCC[C@@H]1C[C@@H](C(=O)N[C@@H]([C@H]2O[C@H](SC)[C@H](O)[C@@H](O)[C@H]2O)[C@H](C)Cl)N(C)C1    98

Activity in this record for `CN[C@H](CC(C)C)C(=O)N[C@H]1C(=O)N[C@@H](CC(N)=O)C(=O)N[C@H]2C(=O)N[C@H]3C(=O)N[C@H](C(=O)N[C@H](C(=O)O)c4cc(O)cc(O)c4-c4cc3ccc4O)[C@H](O)c3ccc(c(Cl)c3)Oc3cc2cc(c3O[C@@H]2O[C@H](CO)[C@@H](O)[C@H](O)[C@H]2O[C@H]2C[C@](C)(N)[C@H](O)[C@H](C)O2)Oc2ccc(cc2Cl)[C@H]1O` : 98
